Please provide measured IC50 for the entries that follow.
Tested on: KRAS PDC tumor spheroids (HUVEC+MSC), viability
Assay: Anticancer human tumor 254851-301-R-J1-PDC patient-derived colon carcinoma cell line growth inhibition [KRAS2]
Conditions: curve of first compound; second compound 0.1 µM
Give bare numbers, in nM.

Some compounds with known IC50 results, for comparison:
INSERT INTO measurements (compound, assay_system, experimental_readout, measured) VALUES
  ('CC(=O)Nc1cccc(-n2c(=O)n(C3CC3)c(=O)c3c(Nc4ccc(I)cc4F)n(C)c(=O)c(C)c32)c1 + COc1cc2nc(C)nc(NC(C)c3cc(N)cc(C(F)(F)F)c3)c2cc1OC1CCOC1', 'KRAS PDC tumor spheroids (HUVEC+MSC), viability', 'IC50', 3.89),
  ('CC(=O)OC12COC1CC(O)C1(C)C(=O)C(O)C3=C(C)C(OC(=O)C(O)C(NC(=O)OC(C)(C)C)c4ccccc4)CC(O)(C(OC(=O)c4ccccc4)C21)C3(C)C (stereo not given) + CNCc1ccccc1-c1csc(C(C)Nc2nc(C)nc3cc(OC)c(OC)cc23)c1', 'KRAS PDC tumor spheroids (HUVEC+MSC), viability', 'IC50', 176);

Give me IC50 for each of these compounds, listed below.
1. CC(C)n1nc(-c2ccc3oc(N)nc3c2)c2c(N)ncnc21 + C=CC(=O)N1CCN(c2nc(OCC3CCCN3C)nc3c2CCN(c2cccc4cccc(C)c24)C3)CC1CC#N
2. COc1cc(Nc2ncc3c(n2)-c2ccc(Cl)cc2C(c2c(F)cccc2OC)=NC3)ccc1C(=O)O + C=CC(=O)N1CCN(c2nc(=O)n(-c3c(C)ccnc3C(C)C)c3nc(-c4c(O)cccc4F)c(F)cc23)C(C)C1
3. CCN1CCN(Cc2ccc(Nc3ncc(F)c(-c4cc(F)c5nc(C)n(C(C)C)c5c4)n3)nc2)CC1 + CNCc1ccccc1-c1csc(C(C)Nc2nc(C)nc3cc(OC)c(OC)cc23)c1

Output line:
1: 23.2; 2: 89.7; 3: 661

----------
Tested on: KRAS PDC tumor spheroids (HUVEC+MSC), viability
Assay: Anticancer human tumor 254851-301-R-J1-PDC cell line growth inhibition [KRAS2];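 also: spheroids exposed to compounds for seven days before readout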;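 as to viability, T/C: 100% = DMSO vehicle control luminescence of the spheroids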
Conditions: second compound 0.1 µM; first compound 0.00316 µM; stronger effect = lower value
Experimental Readout: viability, T/C (%)
One number for each entry, in %.

Some compounds with known viability, T/C results, for comparison:
INSERT INTO results (compound, measured) VALUES
  ('CN(C)C/C=C/C(=O)Nc1cc2c(Nc3ccc(F)c(Cl)c3)ncnc2cc1O[C@H]1CCOC1 + CC1OCC2(CCN(c3cnc(Sc4ccnc(N)c4Cl)c(N)n3)CC2)C1N', 92.8),
  ('CCN1CCN(Cc2ccc(Nc3ncc(F)c(-c4cc(F)c5nc(C)n(C(C)C)c5c4)n3)nc2)CC1 + C=CC(=O)N1CCN(c2nc(=O)n(-c3c(C)ccnc3C(C)C)c3nc(-c4c(O)cccc4F)c(F)cc23)C(C)C1', 114),
  ('CC(=O)Nc1cccc(-n2c(=O)n(C3CC3)c(=O)c3c(Nc4ccc(I)cc4F)n(C)c(=O)c(C)c32)c1 + CNCc1ccccc1-c1csc(C(C)Nc2nc(C)nc3cc(OC)c(OC)cc23)c1', 71),
  ('Cn1ncnc1[C@H]1c2n[nH]c(=O)c3cc(F)cc(c23)N[C@@H]1c1ccc(F)cc1 + CNCc1ccccc1-c1csc(C(C)Nc2nc(C)nc3cc(OC)c(OC)cc23)c1', 92.4);

Give me viability, T/C for each of these compounds, listed below.
1. CC(C)n1nc(-c2ccc3oc(N)nc3c2)c2c(N)ncnc21 + C=CC(=O)N1CCN(c2nc(OCC3CCCN3C)nc3c2CCN(c2cccc4cccc(C)c24)C3)CC1CC#N
2. CCN1CCN(Cc2ccc(Nc3ncc(F)c(-c4cc(F)c5nc(C)n(C(C)C)c5c4)n3)nc2)CC1 + COc1cc2nc(C)nc(NC(C)c3cc(N)cc(C(F)(F)F)c3)c2cc1OC1CCOC1
3. CC(C)n1nc(-c2ccc3oc(N)nc3c2)c2c(N)ncnc21 + C=CC(=O)N1CCN(c2nc(=O)n(-c3c(C)ccnc3C(C)C)c3nc(-c4c(O)cccc4F)c(F)cc23)C(C)C1

Output line:
[90.6, 97.6, 92.8]

Give me viability, T/C for each of these compounds, listed below.
1. Cn1ncnc1[C@H]1c2n[nH]c(=O)c3cc(F)cc(c23)N[C@@H]1c1ccc(F)cc1 + COc1cc2nc(C)nc(NC(C)c3cc(N)cc(C(F)(F)F)c3)c2cc1OC1CCOC1
2. CCN1CCN(Cc2ccc(Nc3ncc(F)c(-c4cc(F)c5nc(C)n(C(C)C)c5c4)n3)nc2)CC1 + CNCc1ccccc1-c1csc(C(C)Nc2nc(C)nc3cc(OC)c(OC)cc23)c1
3. Cn1ncnc1[C@H]1c2n[nH]c(=O)c3cc(F)cc(c23)N[C@@H]1c1ccc(F)cc1 + CC1OCC2(CCN(c3cnc(Sc4ccnc(N)c4Cl)c(N)n3)CC2)C1N
4. CN(C)C/C=C/C(=O)Nc1cc2c(Nc3ccc(F)c(Cl)c3)ncnc2cc1O[C@H]1CCOC1 + C=CC(=O)N1CCN(c2nc(OCC3CCCN3C)nc3c2CCN(c2cccc4cccc(C)c24)C3)CC1CC#N

Output line:
104
91.4
100
88.5
